TARGET_UNDER_TEST: Tyrosine-protein phosphatase non-receptor type 2 (Homo sapiens, UniProt P17706)
Sequence (P17706 whole entry): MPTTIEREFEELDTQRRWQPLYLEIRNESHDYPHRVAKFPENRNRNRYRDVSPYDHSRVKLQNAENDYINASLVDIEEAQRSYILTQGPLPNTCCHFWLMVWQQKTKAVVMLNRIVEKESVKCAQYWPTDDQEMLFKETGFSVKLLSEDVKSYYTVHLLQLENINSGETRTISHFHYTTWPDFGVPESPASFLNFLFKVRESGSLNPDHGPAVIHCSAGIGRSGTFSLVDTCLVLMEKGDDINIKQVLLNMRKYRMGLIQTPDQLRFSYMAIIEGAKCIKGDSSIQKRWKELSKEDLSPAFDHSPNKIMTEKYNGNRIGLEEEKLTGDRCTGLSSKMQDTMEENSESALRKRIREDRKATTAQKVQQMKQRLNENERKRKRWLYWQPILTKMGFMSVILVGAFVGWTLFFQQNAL
METHOD_NOTES: Inhibitory activity against T cell protein tyrosine phosphatase
Format: cell-based
Recorded pIC50, one value per entry.
Worth noting: pIC50 values are minus log10 of concentrations stated in mol/L.

COMPOUND: O=P(O)(O)C(F)(F)c1ccc(CC(Cc2ccc(C(F)(F)P(=O)(O)O)cc2)(c2nc(-c3ccccc3)cs2)n2nnc3ccccc32)cc1
pIC50: 7.74
--
COMPOUND: O=P(O)(O)C(F)(F)c1ccc(CC(Cc2ccc(-c3ccccc3-c3nn[nH]n3)cc2)(c2ccccc2)n2nnc3ccccc32)cc1 (configuration not stated)
pIC50: 7.07

Value of measured pIC50 for the entry O=C(OCc1ccccc1)C(Cc1ccc(C(F)(F)P(=O)(O)O)cc1)(c1ccccc1)n1nnc2ccccc21 (configuration not stated) : 6.54

###

TARGET_UNDER_TEST: Tyrosine-protein phosphatase non-receptor type 1 (Homo sapiens)
Sequence (P18031 whole entry): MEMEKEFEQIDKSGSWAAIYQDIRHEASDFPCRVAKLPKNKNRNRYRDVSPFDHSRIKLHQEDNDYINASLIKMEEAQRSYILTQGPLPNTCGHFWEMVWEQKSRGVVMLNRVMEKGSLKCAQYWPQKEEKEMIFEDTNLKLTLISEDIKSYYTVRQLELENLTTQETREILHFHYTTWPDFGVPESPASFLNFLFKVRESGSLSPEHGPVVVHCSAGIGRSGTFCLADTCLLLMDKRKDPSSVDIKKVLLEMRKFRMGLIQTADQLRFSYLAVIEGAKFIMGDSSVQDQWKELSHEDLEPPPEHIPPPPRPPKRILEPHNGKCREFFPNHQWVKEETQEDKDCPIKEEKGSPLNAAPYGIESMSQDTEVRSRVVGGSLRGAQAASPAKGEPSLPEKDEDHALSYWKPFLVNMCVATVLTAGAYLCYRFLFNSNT
METHOD_NOTES: Inhibitory activity against Protein tyrosine phosphatase 1B (PTP1B) over-expressed in intact Sf9 cell assay
QUANTITY_KIND: pIC50
Worth noting: pIC50 values are minus log10 of concentrations stated in mol/L.

Take a look at these entries with their results.
MOLECULE: O=P(O)(O)C(F)(F)c1ccc(CC(C/C=C/c2ccccc2)(c2ccccc2)n2nnc3ccccc32)cc1 (stereo unspecified)
pIC50: 6.34
//
MOLECULE: Cc1ccc2cc(-c3ccc(CC(Cc4ccc(C(F)(F)P(=O)(O)O)cc4)(c4ccccc4)n4nnc5ccccc54)cc3)cc(P(=O)(O)O)c2n1 (stereo unspecified)
pIC50: 6.66
//
MOLECULE: COC(=O)c1ccc(C(Cc2ccc(C(F)(F)P(=O)(O)O)cc2)(Cc2ccc(C(F)(F)P(=O)(O)O)cc2)n2nnc3ccccc32)cc1
pIC50: 7.08

Recorded pIC50 for O=P(O)(O)C(F)(F)c1ccc(CC(Cc2ccc(C(F)(F)P(=O)(O)O)cc2)(c2nc(-c3ccccc3)cs2)n2nnc3ccccc32)cc1 on Tyrosine-protein phosphatase non-receptor type 1 (Homo sapiens) was 6.72

Recorded pIC50 for O=P(O)(O)C(F)(F)c1ccc(CC(Cc2ccc(-c3ccccc3-c3nn[nH]n3)cc2)(c2ccccc2)n2nnc3ccccc32)cc1 (stereo unspecified) on Tyrosine-protein phosphatase non-receptor type 1 (Homo sapiens) was 6.43

Recorded pIC50 for O=P(O)(O)C(F)(F)c1ccc(CC(Cc2ccc(C(F)(F)P(=O)(O)O)cc2)(c2nc3ccccc3s2)n2nnc3ccccc32)cc1 on Tyrosine-protein phosphatase non-receptor type 1 (Homo sapiens) was 7.06

###

TARGET_UNDER_TEST: Receptor-type tyrosine-protein phosphatase C (Homo sapiens)
Sequence (P08575 whole entry): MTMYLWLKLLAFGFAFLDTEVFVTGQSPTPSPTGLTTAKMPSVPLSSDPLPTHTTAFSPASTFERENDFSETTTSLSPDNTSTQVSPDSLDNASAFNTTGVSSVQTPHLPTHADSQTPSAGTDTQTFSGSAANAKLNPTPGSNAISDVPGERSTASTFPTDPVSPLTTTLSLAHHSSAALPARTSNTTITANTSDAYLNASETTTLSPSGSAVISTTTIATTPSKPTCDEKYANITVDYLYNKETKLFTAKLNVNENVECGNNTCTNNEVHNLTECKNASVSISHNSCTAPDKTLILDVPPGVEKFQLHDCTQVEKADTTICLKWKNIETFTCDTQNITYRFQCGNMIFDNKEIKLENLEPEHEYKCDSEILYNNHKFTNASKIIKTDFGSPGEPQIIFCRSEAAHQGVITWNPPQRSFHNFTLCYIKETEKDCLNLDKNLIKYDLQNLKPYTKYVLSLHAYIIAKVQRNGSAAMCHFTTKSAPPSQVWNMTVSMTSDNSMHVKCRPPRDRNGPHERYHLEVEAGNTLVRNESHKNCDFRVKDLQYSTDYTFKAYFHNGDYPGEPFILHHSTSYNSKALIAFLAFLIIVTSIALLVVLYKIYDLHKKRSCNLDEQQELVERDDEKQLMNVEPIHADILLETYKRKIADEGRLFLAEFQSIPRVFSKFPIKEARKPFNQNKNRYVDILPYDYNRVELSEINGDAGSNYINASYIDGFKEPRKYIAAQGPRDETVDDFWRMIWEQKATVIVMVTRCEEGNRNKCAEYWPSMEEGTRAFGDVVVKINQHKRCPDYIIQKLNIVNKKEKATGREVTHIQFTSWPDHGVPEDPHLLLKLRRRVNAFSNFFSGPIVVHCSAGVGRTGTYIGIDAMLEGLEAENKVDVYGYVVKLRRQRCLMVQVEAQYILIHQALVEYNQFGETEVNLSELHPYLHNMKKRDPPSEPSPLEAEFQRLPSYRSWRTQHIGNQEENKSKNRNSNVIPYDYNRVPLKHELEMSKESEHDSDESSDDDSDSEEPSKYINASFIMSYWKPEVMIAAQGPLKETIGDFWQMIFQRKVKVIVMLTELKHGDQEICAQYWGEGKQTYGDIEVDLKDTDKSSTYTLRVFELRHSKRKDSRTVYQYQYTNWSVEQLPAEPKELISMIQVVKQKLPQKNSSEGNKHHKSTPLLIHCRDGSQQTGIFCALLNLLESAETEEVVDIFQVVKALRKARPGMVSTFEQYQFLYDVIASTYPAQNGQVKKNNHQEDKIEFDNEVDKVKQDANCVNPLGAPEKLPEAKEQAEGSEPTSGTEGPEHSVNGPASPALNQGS
Recorded pIC50, one value per entry.
Worth noting: pIC50 values are minus log10 of concentrations stated in mol/L.

Take a look at these entries with their results.
COMPOUND: O=P(O)(O)C(F)(F)c1ccc(CC(CCCc2ccccc2)(c2ccccc2)n2nnc3ccccc32)cc1 (stereo unspecified)
QUANTITY_KIND: pIC50
EXPERIMENTAL_VALUE: 4.52

COMPOUND: COC(=O)c1ccc(C(Cc2ccc(C(F)(F)P(=O)(O)O)cc2)(Cc2ccc(C(F)(F)P(=O)(O)O)cc2)n2nnc3ccccc32)cc1
QUANTITY_KIND: pIC50
EXPERIMENTAL_VALUE: 4.30

COMPOUND: COC(CC(C)C)c1ccc2cc(-c3ccc(CC(Cc4ccc(C(F)(F)P(=O)(O)O)cc4)(c4ccccc4)n4nnc5ccccc54)cc3)cc(P(=O)(O)O)c2n1 (stereo in doubt; 21b)
QUANTITY_KIND: pIC50
EXPERIMENTAL_VALUE: 4.30

COMPOUND: O=P(O)(O)C(F)(F)c1ccc(CC(Cc2ccc(C(F)(F)P(=O)(O)O)cc2)(c2nc(-c3ccccc3)cs2)n2nnc3ccccc32)cc1
QUANTITY_KIND: pIC50
EXPERIMENTAL_VALUE: 4.30

Value of measured pIC50 for the entry O=P(O)(O)C(F)(F)c1ccc(CC(Cc2ccc(C(F)(F)P(=O)(O)O)cc2)(c2ccc(F)c(F)c2)n2nnc3ccccc32)cc1 : 4.30

Value of measured pIC50 for the entry COC(CC(C)C)c1ccc2cc(-c3ccc(CC(Cc4ccc(C(F)(F)P(=O)(O)O)cc4)(c4ccccc4)n4nnc5ccccc54)cc3)cc(P(=O)(O)O)c2n1 (stereo in doubt; 21d) : 4.49
